B1: EEHEE_rd3_1049 (parent)
chain: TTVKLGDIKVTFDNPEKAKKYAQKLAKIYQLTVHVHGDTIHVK

Variants of: B1
Test: folding stability dG (cDNA display proteolysis); higher = more stable
Conditions: PBS, room temperature
Label true (1) when folding stability dG is at or above 2 kcal/mol; otherwise label false (0).

Examples from the recorded data:
| polymer_sequence | class |
| --- | --- |
| TTVKLGDIKVTFDNPEKAKKYAQKLAKIYQLTVMVHGDTIHVK | true (1) |
| TTVKLGDIKVTFDNPEKAKKYAQKLAKIYQLTVHVHGDNIHVK | false (0) |
| TTVKLGDIKVTFDNPEKAKKYAQKWAKIYQLTVHVHGDTIHVK | false (0) |
| TTVKLGDIKVTFDNPEKAKKYAQKLAKIYQLTVHVLGDTIHVK | true (1) |
| TAVKLGDIKVTFDNPEKAKKYAQKLAKIYQLTVHVHGDTIHVK | false (0) |

Is folding stability dG for TTVKLGDIKVTFDNPEKAKKYAQKLAKIYQLTVHVHGATIHVK at or above 2 kcal/mol?
false (0)

Does folding stability dG meet or surpass 2 kcal/mol for TTVKLGDIKVTFDNPEKAKKYAQKLAKSYQLTVHVHGDTIHVK ?
false (0)

Has TTVKLVDIKVTFDNPEKAKKYAQKLAKIYQLTVHVHGDTIHVK a recorded folding stability dG greater than or equal to 2 kcal/mol?
false (0)

State whether the measured folding stability dG reaches 2 kcal/mol, counting equality as reaching it, for TTVKLGDIKVTFDNPLKAKKYAQKLAKIYQLTVHVHGDTIHVK
false (0)

Please tell me: is the variant TTVKLGDIKVTFDNPEKAKKYAQKLAHIYQLTVHVHGDTIHVK at or over 2 kcal/mol in terms of folding stability dG?
false (0)

Say whether TTVKLGDIKKTFDNPEKAKKYAQKLAKIYQLTVHVHGDTIHVK shows folding stability dG of 2 kcal/mol or more.
false (0)

Check the entry TTVKLGDAKVTFDNPEKAKKYAQKLAKIYQLTVHVHGDTIHVK : does folding stability dG equal or exceed 2 kcal/mol?
false (0)

Test whether the variant TTVKLEDIKVTFDNPEKAKKYAQKLAKIYQLTVHVHGDTIHVK records folding stability dG of 2 kcal/mol or higher.
false (0)

Reported folding stability dG at or above 2 kcal/mol? TTVKLGDIKVTFDNPEKAKKYAQKLAKIYQLTEHVHGDTIHVK
false (0)

Is folding stability dG for TTVKLGDIKVTYDNPEKAKKYAQKLAKIYQLTVHVHGDTIHVK at or above 2 kcal/mol?
false (0)

Confirm if folding stability dG reported for the variant TTVKLGDIKVTFDNPEKAKKYAQKLAKIYQLTVHVHGDVIHVK is 2 kcal/mol or above.
true (1)

Quick check: does TTVKLGDIKVTFDNPEKAKKYAQKLAKTYQLTVHVHGDTIHVK have folding stability dG greater than or equal to 2 kcal/mol?
false (0)

Hey, just so you know, these numbers are from the MegaScale stability set (Tsuboyama et al. 2023).
